Values were extracted from ChEMBL document CHEMBL4038328.

Parameter: Ratio EC50. Scope: all listed entries.
# System: Human immunodeficiency virus 1
# assay.remarks: Selectivity ratio of EC50 for VSV-G pseudotyped HIV1 harboring integrase E92Q mutant infected in HOS cells to EC50 for VSV-G pseudotyped HIV1 harboring wild-type integrase infected in HOS cells
# Format: functional
readout.kind: Ratio EC50

| smiles.entry | reported |
| --- | --- |
| CC(=O)OCCCCCc1cnc2c(c1)c(NCCO)c(C(=O)NCc1ccc(F)cc1F)c(=O)n2O | 0.7 |
| COC(=O)CCc1cnc2c(c1)c(NCCO)c(C(=O)NCc1ccc(F)cc1F)c(=O)n2O | 0.7 |
| COC(=O)CCc1cnc2c(c1)c(N)c(C(=O)NCc1ccc(F)cc1F)c(=O)n2O | 3 |
| CC(=O)OCCCc1cnc2c(c1)c(N)c(C(=O)NCc1ccc(F)cc1F)c(=O)n2O | 1 |
| Nc1c(C(=O)NCc2ccc(F)cc2F)c(=O)n(O)c2ncc(CCCCCO)cc12 | 3 |
| O=C(NCc1ccc(F)cc1F)c1c(NCCO)c2cc(CCCCCO)cnc2n(O)c1=O | 0.5 |

###

# Tested on: Human immunodeficiency virus 1
# assay.remarks: Antiviral activity against VSV-G pseudotyped HIV1 harboring integrase R263K mutant infected in HOS cells pretreated […] for 3 hrs followed by viral infection measured after 48 hrs by luciferase reporter gene assay
# Assay type: functional, cell-based
# condition.set: Human immunodeficiency virus 1, HOS
pEC50: −log10 of the molar value.

| smiles.entry | target.under.test | pEC50 |
| --- | --- | --- |
| O=C(NCc1ccc(F)cc1F)c1c(NCCO)c2cc(CCCCCO)cnc2n(O)c1=O | Human immunodeficiency virus 1 | 7.74 |
| Nc1c(C(=O)NCc2ccc(F)cc2F)c(=O)n(O)c2ncc(CCCCCO)cc12 | Human immunodeficiency virus 1 | 8.59 |
| CC(=O)OCCCc1cnc2c(c1)c(N)c(C(=O)NCc1ccc(F)cc1F)c(=O)n2O | Human immunodeficiency virus 1 | 8.74 |
| COC(=O)CCc1cnc2c(c1)c(NCCO)c(C(=O)NCc1ccc(F)cc1F)c(=O)n2O | Human immunodeficiency virus 1 | 8.19 |
| CC(=O)OCCCCCc1cnc2c(c1)c(NCCO)c(C(=O)NCc1ccc(F)cc1F)c(=O)n2O | Human immunodeficiency virus 1 | 8.44 |
| COC(=O)CCc1cnc2c(c1)c(N)c(C(=O)NCc1ccc(F)cc1F)c(=O)n2O | Human immunodeficiency virus 1 | 9.30 |

###

# Test system: Human immunodeficiency virus 1
# assay.remarks: Selectivity ratio of EC50 for VSV-G pseudotyped HIV1 harboring integrase H51Y mutant infected in HOS cells to EC50 for VSV-G pseudotyped HIV1 harboring wild-type integrase infected in HOS cells
# Type: functional
As shown below, each of these compounds has a reported Ratio EC50 value.
readout.kind: Ratio EC50

| smiles.entry | reported |
| --- | --- |
| CC(=O)OCCCCCc1cnc2c(c1)c(NCCO)c(C(=O)NCc1ccc(F)cc1F)c(=O)n2O | 1 |
| Nc1c(C(=O)NCc2ccc(F)cc2F)c(=O)n(O)c2ncc(CCCCCO)cc12 | 3 |
| COC(=O)CCc1cnc2c(c1)c(N)c(C(=O)NCc1ccc(F)cc1F)c(=O)n2O | 0.9 |
| COC(=O)CCc1cnc2c(c1)c(NCCO)c(C(=O)NCc1ccc(F)cc1F)c(=O)n2O | 2 |
| O=C(NCc1ccc(F)cc1F)c1c(NCCO)c2cc(CCCCCO)cnc2n(O)c1=O | 0.8 |
| CC(=O)OCCCc1cnc2c(c1)c(N)c(C(=O)NCc1ccc(F)cc1F)c(=O)n2O | 0.6 |

###

# System: HOS
# assay.remarks: Cytotoxicity against HOS cells assessed as reduction in cell viability after 48 hrs by ATPLite luminescence assay
# Assay type: cell-based
# condition.set: human, hos, 48 h

| smiles.entry | target.under.test | CC50 |
| --- | --- | --- |
| Nc1c(C(=O)NCc2ccc(F)cc2F)c(=O)n(O)c2ncc(CCC(=O)NCCO)cc12 | HOS | > 250 µM |
| O=C(NCc1ccc(F)cc1F)c1c(O)c2cc(CCCCCO)cnc2n(O)c1=O | HOS | > 250 µM |
| CC(C)NC(=O)/C=C/c1cnc2c(c1)c(N)c(C(=O)NCc1ccc(F)cc1F)c(=O)n2O | HOS | > 250 µM |
| CC(=O)OCCCc1cnc2c(c1)c(N)c(C(=O)NCc1ccc(F)cc1F)c(=O)n2O | HOS | > 250 µM |
| COC(=O)CCc1cnc2c(c1)c(NCCO)c(C(=O)NCc1ccc(F)cc1F)c(=O)n2O | HOS | > 250 µM |
| CC(=O)OCCCCCc1cnc2c(c1)c(NCCO)c(C(=O)NCc1ccc(F)cc1F)c(=O)n2O | HOS | > 100 µM |
| COc1ccc2c(N)c(C(=O)NCc3ccc(F)cc3F)c(=O)n(O)c2n1 | HOS | 2.2 µM |
| CN(C)C(=O)CCc1cnc2c(c1)c(N)c(C(=O)NCc1ccc(F)cc1F)c(=O)n2O | HOS | > 250 µM |

###

# assay.remarks: Inhibition of HIV1 integrase strand transfer activity using 5'-end 32P labeled DNA substrate measured after 2 hrs by PAGE based phosphor imaging method
# Parameters: species or system Human immunodeficiency virus 1
Listed here are compounds together with their documented IC50.
readout.kind: IC50 (nM)

| smiles.entry | readout.kind | reported |
| --- | --- | --- |
| CN(C)C(=O)CCc1cnc2c(c1)c(N)c(C(=O)NCc1ccc(F)cc1F)c(=O)n2O | IC50 | 8 |
| COC(=O)CNc1c(C(=O)NCc2ccc(F)cc2F)c(=O)n(O)c2nc(N3CCCCC3)ccc12 | IC50 | 96000 |
| COc1ccc2c(N)c(C(=O)NCc3ccc(F)cc3F)c(=O)n(O)c2n1 | IC50 | 11 |
| COC(=O)CCc1cnc2c(c1)c(N)c(C(=O)NCc1ccc(F)cc1F)c(=O)n2O | IC50 | 3.1 |
| Nc1c(C(=O)NCc2ccc(F)cc2F)c(=O)n(O)c2nc(N3CCCCC3)ccc12 | IC50 | 54000 |
| O=C(NCc1ccc(F)cc1F)c1c(O)c2cc(CCCCCO)cnc2n(O)c1=O | IC50 | 12 |
| Nc1c(C(=O)NCc2ccc(F)cc2F)c(=O)n(O)c2ncc(CCCCCO)cc12 | IC50 | 2.7 |

###

# Tested on: Human immunodeficiency virus 1
# assay.remarks: Antiviral activity against VSV-G pseudotyped HIV1 harboring integrase N155H mutant infected in HOS cells pretreated […] for 3 hrs followed by viral infection measured after 48 hrs by luciferase reporter gene assay
# Type: functional, cell-based
# condition.set: Human immunodeficiency virus 1, HOS
pEC50: −log10 of the molar value.
readout.kind: pEC50

| smiles.entry | target.under.test | reported |
| --- | --- | --- |
| CN(C)C(=O)CCc1cnc2c(c1)c(N)c(C(=O)NCc1ccc(F)cc1F)c(=O)n2O | Human immunodeficiency virus 1 | 8.17 |
| CC(C)NC(=O)/C=C/c1cnc2c(c1)c(N)c(C(=O)NCc1ccc(F)cc1F)c(=O)n2O | Human immunodeficiency virus 1 | 7.92 |
| CC(=O)OCCCCCc1cnc2c(c1)c(NCCO)c(C(=O)NCc1ccc(F)cc1F)c(=O)n2O | Human immunodeficiency virus 1 | 8.00 |
| Nc1c(C(=O)NCc2ccc(F)cc2F)c(=O)n(O)c2ncc(CCC(=O)O)cc12 | Human immunodeficiency virus 1 | 8.00 |
| O=C(NCc1ccc(F)cc1F)c1c(NCCO)c2cc(CCCCCO)cnc2n(O)c1=O | Human immunodeficiency virus 1 | 7.82 |
| COC(=O)CNc1c(C(=O)NCc2ccc(F)cc2F)c(=O)n(O)c2ncc(CCCCCO)cc12 | Human immunodeficiency virus 1 | 7.96 |
| CN(C)C(=O)/C=C/c1cnc2c(c1)c(N)c(C(=O)NCc1ccc(F)cc1F)c(=O)n2O | Human immunodeficiency virus 1 | 7.82 |
| O=C(NCc1ccc(F)cc1F)c1c(O)c2cc(CCCCCO)cnc2n(O)c1=O | Human immunodeficiency virus 1 | 7.49 |
| CC(C)NC(=O)CCc1cnc2c(c1)c(N)c(C(=O)NCc1ccc(F)cc1F)c(=O)n2O | Human immunodeficiency virus 1 | 7.96 |
| COC(=O)CNc1c(C(=O)NCc2ccc(F)cc2F)c(=O)n(O)c2nc(OC)ccc12 | Human immunodeficiency virus 1 | 5.90 |
| Nc1c(C(=O)NCc2ccc(F)cc2F)c(=O)n(O)c2ncc(CCCCCO)cc12 | Human immunodeficiency virus 1 | 8.62 |
| Nc1c(C(=O)NCc2ccc(F)cc2F)c(=O)n(O)c2ncc(CCCCc3ccccc3)cc12 | Human immunodeficiency virus 1 | 7.41 |
| Nc1c(C(=O)NCc2ccc(F)cc2F)c(=O)n(O)c2ncc(CCc3ccccc3)cc12 | Human immunodeficiency virus 1 | 7.68 |
